system: U251 CNS
Answer with one of the outcomes given here: active, inactive

Here's what some known entries look like.
>  <compound>
O=C(CCCCN1CCN(CCCCC(=O)Nc2ccccc2C#C/C=C\C#Cc2ccccc2C(F)(F)F)CC1)Nc1ccccc1C#C/C=C\C#Cc1ccccc1C(F)(F)F

>  <classAssignment>
inactive

$$$$
>  <compound>
CC(=O)Nc1cccc(C#Cc2cncnc2Nc2ccc(OCc3cccc(F)c3)c(Cl)c2)c1

>  <classAssignment>
inactive

$$$$
>  <compound>
COc1cc([C@@H]2c3cc4c(cc3[C@H](SC(=N)N)[C@H]3COC(=O)[C@H]23)OCO4)cc(OC)c1OC

>  <classAssignment>
active

$$$$
>  <compound>
C[C@]12CCc3nc(Nc4ccc(O)cc4)sc3C1=CC[C@@H]1[C@@H]2CC[C@]2(C)/C(=N/NC(N)=S)CC[C@@H]12

>  <classAssignment>
inactive

$$$$
>  <compound>
Nc1ncnc2c1c(-c1ccc(Oc3ccccc3)cc1)nn2CC1SSCC1O (stereo unspecified)

>  <classAssignment>
inactive

$$$$

Called result for O=C(Nc1nc2ccc(S(=O)(=O)Nc3ccc(C4(C(F)(F)F)CC4)cc3)cc2[nH]1)c1cnccn1
inactive

Called result for COc1ccc(-c2cnc(-c3ccncc3-c3cccc(OC)c3)o2)cc1
active

Called result for Cn1cc(-c2ccc3ncc(-c4ccc(CC(=O)Nc5cc(C(C)(C)C)nn5C)cc4)cc3c2)cn1
inactive

Called result for CCCCCCCCCCCCCC(=O)O[C@H]1CC[C@H](NC(=O)[C@H](OC)[C@H](O)[C@@H](O)[C@H](O)/C=C/C(C)C)C(=O)N(C)C1
active

Called result for COC(=O)[C@]12CC[C@@H](C)[C@H](C)[C@@H]1C1=CC[C@@H]3[C@@]4(C)C(C=O)=C[C@@](C)(COS(C)(=O)=O)C4=CC[C@@]3(C)[C@]1(C)CC2
active

Called result for S=C(Sc1ccc(Cl)cc1)Sc1ccc(Cl)cc1
inactive

* * *

test system: A549 NSCLC; experiment: NCI tumour cell line growth inhibition, 48 h
TGI listing for selected compounds.

>  <chemicalStructure>
N#Cc1c(-c2ccccc2)c(-c2ccccc2)cc2c(=O)c3ccc(Cl)cc3[nH]c12

>  <reportedValue>
> 100 µM

$$$$
>  <chemicalStructure>
Nc1c(C(=O)Nc2ccccc2)sc2nc3c(cc12)C(=O)CCC3

>  <reportedValue>
> 100 µM

$$$$
>  <chemicalStructure>
CC(C)(C)O/N=C/c1cc(NC(=S)c2ccccc2)ccc1Cl

>  <reportedValue>
35.1 µM

$$$$
>  <chemicalStructure>
Cc1ccc(S(=O)(=O)Nc2ccccc2C(C)(C)C)cc1

>  <reportedValue>
> 100 µM

$$$$
>  <chemicalStructure>
COc1ccc(O[C@H](CO)C[C@@H]2COC(C)(C)O2)cc1

>  <reportedValue>
> 100 µM

$$$$

Let's switch to this compound now.
Notebook: pull reported TGI for A549 NSCLC, entry Cc1ccc(S(=O)(=O)OCCN(CCOS(=O)(=O)c2ccc(C)cc2)c2ccc(C=O)cc2)cc1
> 100 µM

* * *

TGI listing for selected compounds.
test system: SNB-75 CNS; test: NCI tumour cell line growth inhibition, 48 h

>  <compound>
CC(C)=CC1C(C(=O)OCc2cc3c(cc2Cl)OCO3)C1(C)C (stereo unspecified)

>  <TGI>
> 100 µM

$$$$
>  <compound>
CCc1ccc(Oc2c(-c3ccc(OCc4ccc(Cl)cc4)cc3O)nn(C)c2C(F)(F)F)cc1

>  <TGI>
4.49 µM

$$$$
>  <compound>
COc1cc2c(cc1O)NC(=O)[C@@H]1C[C@@H](O)CN1C2=O

>  <TGI>
> 100 µM

$$$$
>  <compound>
NC1CCC2(O)c3ccccc3C2C1 (stereo unspecified)

>  <TGI>
> 100 µM

$$$$
>  <compound>
O=c1c2ccc(Cl)cc2oc2c(CSc3ccccc3)cccc12

>  <TGI>
> 74.5 µM

$$$$

Request the reported TGI associated with COc1ccc(S(=O)(=O)NC(CCC(=O)NC(N)=O)C(=O)NC(N)=O)cc1 (stereo unspecified)
> 100 µM

* * *

system: HOP-62 NSCLC; test: NCI tumour cell line growth inhibition, 48 h
quantityName: TGI

>  <compound>
CC(C)c1ccc(Cc2ccc(C(C)C)c(NC(=O)C(=O)Cc3cnc4ccccc4n3)c2C(C)C)c(C(C)C)c1NC(=O)C(=O)Cc1cnc2ccccc2n1

>  <TGI>
> 100 µM

$$$$
>  <compound>
O=c1[nH]c2c(Nc3c4ccccc4nc4ccccc34)c([N+](=O)[O-])c(Nc3c4ccccc4nc4ccccc34)c([N+](=O)[O-])c2[nH]1

>  <TGI>
20.2 µM

$$$$
>  <compound>
Cc1ccc(C(=O)Nc2ccc(CP(=O)(O)O)cc2CP(=O)(O)O)cc1N

>  <TGI>
> 100 µM

$$$$
>  <compound>
CC(C)(C)C(=O)c1c(O)c2ccccc2c2ccccc2c1=O

>  <TGI>
> 100 µM

$$$$
>  <compound>
O=C(/C=C/c1ccccc1)c1cc(CN2CCOCC2)c(O)c(CN2CCOCC2)c1

>  <TGI>
39.3 µM

$$$$

Request the reported TGI associated with NC1=NC(c2ccccc2Cl)c2c(n[nH]c2N)N1 (stereo not given)
> 100 µM

Request the reported TGI associated with C/C(=N\NC(=S)N1CCC1)c1ccccn1
> 33.9 µM

* * *

TGI listing for selected compounds.
tested on: HCC-2998 colon; test: NCI tumour cell line growth inhibition, 48 h

Sample records with TGI:
>  <compound>
CCOC(=O)N1CCNCCN(C(=O)OCC)CCNCC1

>  <TGI>
> 100 µM

$$$$
>  <compound>
O=C(O)c1ccccc1C(=O)c1ccco1

>  <TGI>
> 100 µM

$$$$
>  <compound>
O=[N+]([O-])c1cccnc1S(=O)(=O)c1ccccc1

>  <TGI>
39.6 µM

$$$$

Request the reported TGI associated with CC(C)c1ccc(Cc2ccc(C(C)C)c(NC(=O)C(=O)Cc3cnc4ccccc4n3)c2C(C)C)c(C(C)C)c1NC(=O)C(=O)Cc1cnc2ccccc2n1
> 100 µM

Request the reported TGI associated with CNC(=O)OCc1nc(SSc2nc(COC(=O)NC)c(COC(=O)NC)n2C)n(C)c1COC(=O)NC
> 100 µM

Request the reported TGI associated with CCc1ccc(Oc2c(-c3ccc(OCc4ccc(Cl)cc4)cc3O)nn(C)c2C(F)(F)F)cc1
9.62 µM

Request the reported TGI associated with O=C(Nc1ccc(-n2cc(-c3ccncc3)c(-c3ccc(O)c(Cl)c3)n2)cc1)Nc1cc(C(F)(F)F)cc(C(F)(F)F)c1
22.1 µM

Request the reported TGI associated with Cc1cc(OC2OC(CO)C(O)C(O)C2O)ccc1O (stereo not drawn)
> 100 µM

Request the reported TGI associated with Cc1ccc(S(=O)(=O)N/N=c2/sc3ccccc3n2C)cc1
> 100 µM

Request the reported TGI associated with Cc1ccc2ccc3c4ccccc4ccc3c2c1
43.2 µM

Request the reported TGI associated with [C-]#[O+].[Cl][Sn]([Cl])[Cl].[Cl][Sn]([Cl])[Cl].[Pt].c1cnc2c(c1)ccc1cccnc12
13.1 µM

* * *

GI50 listing for selected compounds.
test system: EKVX NSCLC; assay: NCI tumour cell line growth inhibition, 48 h

Request the reported GI50 associated with CN(C)C1C(=O)C(C(N)=O)=C(O)C2(O)C(=O)C3=C(O)c4c(O)cccc4C(C)(O)C3CC12.[Cl][Sb]([Cl])[Cl] (centres undefined)
2960 nM

Request the reported GI50 associated with CCCCCCCCCCCCCC(=O)O[C@H]1CC[C@H](NC(=O)[C@H](OC)[C@H](O)[C@@H](O)[C@H](O)/C=C/C(C)C)C(=O)N(C)C1
1360 nM

Request the reported GI50 associated with NC(=O)c1nc(-c2c(F)cccc2Cl)oc1Nc1ccc(C(=O)N2CCOCC2)cc1
12200 nM

Request the reported GI50 associated with COc1cccc(-c2cc(=O)c3cc(N4CCN(C)CC4)ccc3[nH]2)c1
2960 nM

* * *

tested on: LXFL 529 NSCLC; assay: NCI tumour cell line growth inhibition, 48 h
quantityName: TGI (µM)
Only the number, expressed in µM, is required.

>  <molecule>
C=C1C(=O)O[C@@H]2C[C@@]3(C)[C@H](O)CCC(=C)[C@@H]3C[C@H]12

>  <TGI, µM>
12.8

$$$$

Request the reported TGI associated with CCCCCCCCCCCCCCCC(=O)OCC1OC(n2cc(F)c(=O)[nH]c2=O)C(NC(=O)OCc2ccccc2)C(O)C1O (stereo not given)
31.5

* * *

test system: NCI-H23 lung; assay: NCI tumour cell line growth inhibition, 48 h
TGI listing for selected compounds.

Sample records with TGI:
>  <compound>
CC(C)Oc1cccc(N2C(CCc3c[nH]c4ccc(Br)cc34)=NS(=O)(=O)c3cnccc32)c1

>  <TGI>
> 100 µM

$$$$
>  <compound>
O=C1C=CC2(O)OCC3C=C4O[C@@H]5OC6(CCCCC6)O[C@@H]5C4[C@@H]2[C@@H]13 (some centres undefined)

>  <TGI>
67.3 µM

$$$$
>  <compound>
O=c1[nH]c2c(Nc3c4ccccc4nc4ccccc34)c([N+](=O)[O-])c(Nc3c4ccccc4nc4ccccc34)c([N+](=O)[O-])c2[nH]1

>  <TGI>
2.74 µM

$$$$

Request the reported TGI associated with Cc1ccc(S(=O)(=O)NC(=O)Nc2ccc(C(=O)O)cc2)cc1
> 100 µM

Request the reported TGI associated with Cn1c2c(c3c(=O)[nH]ncc31)Cc1ccccc1-2
> 100 µM

Request the reported TGI associated with COc1ccc(/C=C/C(=O)c2c(-c3ccccc3)nn(C)c(=O)c2N2CCCCC2)cc1
50.7 µM

Request the reported TGI associated with Nc1c(C(=O)O)c2ccc([N+](=O)[O-])cc2c(=O)n1-c1nc2ccccc2s1
> 100 µM

Request the reported TGI associated with CC(=O)Oc1cc2c(cc1OCC(F)(F)F)[C@H]1CC[C@]3(C)[C@@H](OC(C)=O)CC[C@H]3[C@@H]1CC2=O
> 68.8 µM

Request the reported TGI associated with N#CN1CC[C@H](C(=O)Nc2ncc(-c3ccccc3)s2)C1
6.46 µM

Data origin: PubChem BioAssay (NCI)
